Test: Microsolubility estimate by repeated addition of vehicle
Format: physicochemical
Details: mineral oil, oil or lipid, thermodynamic from solid; read-out: Microsolubility

[
  {
    "smiles_repr": "CCOC(=O)N1c2ccc(C(F)(F)F)cc2[C@@H](N(Cc2cc(C(F)(F)F)cc(C(F)(F)F)c2)C(=O)OC)C[C@H]1CC",
    "Solubility": "< 75 mg/mL"
  }
]

----------
Assay: Microsolubility estimate by repeated addition of vehicle
Type: physicochemical
Settings: Corn oil/Polysorbate 80 (80/20), oil or lipid, thermodynamic from solid; read-out: Microsolubility
measured_property: Solubility

[
  {
    "smiles_repr": "CCOC(=O)N1c2cc(C(F)(F)F)ccc2[C@@H](N(Cc2cc(C(F)(F)F)cc(C(F)(F)F)c2)C(=O)OC)C[C@H]1C",
    "reading": "> 20 mg/mL"
  }
]

----------
Assay: Pharmacokinetics in dogs
Assay type: in vivo, Male Beagle dogs
Details: male, Beagle, dog, plasma, po, 60 mg, fasted, Miglyol 812/Triacetin/Polysorbate 80/Capmul MCM (22/27/20/31)

[
  {
    "smiles_repr": "CC[C@@H]1C[C@H](N(Cc2cc(C(F)(F)F)cc(C(F)(F)F)c2)C(=O)OC)c2cc(C(F)(F)F)ccc2N1C(=O)OC(C)C",
    "unit_annotation": "h",
    "Tmax": 1.5
  }
]

----------
Test: PK in rat, oils or preformed emulsions by oral gavage
Set-up: species or system Sprague Dawley rats
Conditions: Sprague-Dawley, in vivo, 500 mg/kg, crystalline ethanolate, Miglyol/Cremophor/water 40/10/50, 500 mg/kg, conc. in oil 100 mg/mL
measured_property: Cmax (ng/mL)

[
  {
    "smiles_repr": "CCOC(=O)N1c2ccc(C(F)(F)F)cc2[C@@H](N(Cc2cc(C(F)(F)F)cc(C(F)(F)F)c2)C(=O)OC)C[C@H]1CC",
    "measured_property": "Cmax",
    "reading": 4600
  }
]

----------
Test: PK in monkeys
Format: in vivo, cynomologous monkeys
Details: monkey, in vivo, oral, 50 mg/kg, crystalline ethanolate, Miglyol/Cremophor/water 40/10/50, 50 mg/kg (BID), read-out: Cmax
measured_property: Cmax

[
  {
    "smiles_repr": "CCOC(=O)N1c2ccc(C(F)(F)F)cc2[C@@H](N(Cc2cc(C(F)(F)F)cc(C(F)(F)F)c2)C(=O)OC)C[C@H]1CC",
    "measured_property": "Cmax",
    "reading": "800 to 1100 ng/mL"
  }
]

----------
Experiment: PK in monkeys
Type: in vivo, cynomologous monkeys
Conditions: monkey, in vivo, oral, 100 mg/kg, amorphous anhydrous, Miglyol

[
  {
    "smiles_repr": "CCOC(=O)N1c2ccc(C(F)(F)F)cc2[C@@H](N(Cc2cc(C(F)(F)F)cc(C(F)(F)F)c2)C(=O)OC)C[C@H]1CC",
    "AUC": "~29000 ng·h/mL"
  }
]

----------
Measured Solubility values are reported for all entries that follow.
Assay: Microsolubility estimate by repeated addition of vehicle
Assay type: physicochemical
Settings: oil or lipid, thermodynamic from solid; read-out: Microsolubility

[
  {
    "smiles_repr": "CCOC(=O)N1c2ccc(C(F)(F)F)cc2[C@@H](N(Cc2cc(C(F)(F)F)cc(C(F)(F)F)c2)C(=O)OC)C[C@H]1CC",
    "Solubility": "< 75 mg/mL"
  },
  {
    "smiles_repr": "CCC(CC)CC1(C(=O)Nc2ccccc2SC(=O)C(C)C)CCCCC1",
    "Solubility": "< 100 mg/mL"
  }
]

----------
Assay: Microsolubility estimate by repeated addition of vehicle
Format: physicochemical
Settings: Miglyol 810, oil or lipid, thermodynamic from solid; read-out: Microsolubility
Description: For CETP inhibitors where quantities were limited, an estimate of solubility was obtained by addition of vehicle to a known quantity of the compound and mixing in an ultrasonicator bath for 90 minutes, followed by overnight equilibration at ambient temperature. Addition of vehicle was repeated until a solution was achieved. […]

[
  {
    "smiles_repr": "CCOC(=O)N1c2ccc(C(F)(F)F)cc2[C@@H](N(Cc2cc(C(F)(F)F)cc(C(F)(F)F)c2)C(=O)OC)C[C@H]1CC",
    "Solubility": "< 100 mg/mL"
  }
]

----------
Measured Solubility values are reported for all entries that follow.
Assay: Microsolubility estimate by repeated addition of vehicle
Assay type: physicochemical
Conditions: Safflower oil, oil or lipid, thermodynamic from solid; read-out: Microsolubility

[
  {
    "molecule": "CCCOC(=O)N1c2ccc(C(F)(F)F)cc2[C@@H](N(Cc2cc(C(F)(F)F)cc(C(F)(F)F)c2)C(C)=O)CC1C1CC1 (stereo in doubt) [Compound M]",
    "Solubility": "< 300 mg/mL"
  },
  {
    "molecule": "CCCOC(=O)N1c2ccc(C(F)(F)F)cc2[C@@H](N(C=O)Cc2cc(C(F)(F)F)cc(C(F)(F)F)c2)CC1C1CC1 (stereo in doubt) [Compound N]",
    "Solubility": "> 300 mg/mL"
  },
  {
    "molecule": "CCOC(=O)N1c2ccc(C(F)(F)F)cc2[C@@H](N(Cc2cc(C(F)(F)F)cc(C(F)(F)F)c2)C(C)=O)C[C@H]1C [Compound O]",
    "Solubility": "< 300 mg/mL"
  }
]

----------
Experiment: Microsolubility estimate by repeated addition of vehicle
Format: physicochemical
Settings: Cotton oil, oil or lipid, thermodynamic from solid; read-out: Microsolubility
Method: For CETP inhibitors where quantities were limited, an estimate of solubility was obtained by addition of vehicle to a known quantity of the compound and mixing in an ultrasonicator bath for 90 minutes, followed by overnight equilibration at ambient temperature. Addition of vehicle was repeated until a solution was achieved. […]
measured_property: Solubility

[
  {
    "smiles_repr": "CCOC(=O)N1c2ccc(C(F)(F)F)cc2[C@@H](N(Cc2cc(C(F)(F)F)cc(C(F)(F)F)c2)C(=O)OC)C[C@H]1CC",
    "reading": "< 75 mg/mL"
  }
]

----------
Measured Solubility values are reported for all entries that follow.
Assay: Microsolubility estimate by repeated addition of vehicle
Assay type: physicochemical
Conditions: Cremophor EL, organic solvent or mixture, thermodynamic from solid; read-out: Microsolubility
Protocol: For CETP inhibitors where quantities were limited, an estimate of solubility was obtained by addition of vehicle to a known quantity of the compound and mixing in an ultrasonicator bath for 90 minutes, followed by overnight equilibration at ambient temperature. Addition of vehicle was repeated until a solution was achieved. […]

[
  {
    "compound": "COC(=O)N(Cc1cc(C(F)(F)F)cc(C(F)(F)F)c1)[C@H]1CC(C2CC2)N(C(=O)OC(C)C)c2ccc(C(F)(F)F)cc21 (stereo in doubt) [Compound G]",
    "Solubility": "> 300 mg/mL"
  },
  {
    "compound": "COC(=O)N(Cc1cc(C(F)(F)F)cc(C(F)(F)F)c1)[C@@H]1CC(C2CC2)N(C(=O)OC(C)C)c2ccc(C(F)(F)F)cc21 (stereo in doubt) [Compound H]",
    "Solubility": "< 160 mg/mL"
  }
]

----------
Measured Solubility values are reported for all entries that follow.
Test: Microsolubility estimate by repeated addition of vehicle
Type: physicochemical
Conditions: Capmul MCM, oil or lipid, thermodynamic from solid; read-out: Microsolubility
measured_property: Solubility

[
  {
    "molecule": "CCCOC(=O)N1c2ccc(C(F)(F)F)cc2[C@@H](N(C=O)Cc2cc(C(F)(F)F)cc(C(F)(F)F)c2)CC1C1CC1 (stereo in doubt)",
    "reading": "> 300 mg/mL"
  },
  {
    "molecule": "CCOC(=O)N1c2cc3c(cc2[C@H](N(Cc2cc(C(F)(F)F)cc(C(F)(F)F)c2)C(=O)OC)C[C@@H]1C)CCC3",
    "reading": "> 100 mg/mL"
  },
  {
    "molecule": "CCOC(=O)N1c2ccc(C(F)(F)F)cc2[C@@H](N(Cc2cc(C(F)(F)F)cc(C(F)(F)F)c2)C(C)=O)C[C@H]1C",
    "reading": "> 300 mg/mL"
  },
  {
    "molecule": "CCOC(=O)N1c2ccc(C(F)(F)F)cc2[C@@H](N(Cc2cc(C(F)(F)F)cc(C(F)(F)F)c2)C(=O)OC)C[C@H]1C",
    "reading": "> 300 mg/mL"
  },
  {
    "molecule": "CCC(CC)CC1(C(=O)Nc2ccccc2SC(=O)C(C)C)CCCCC1",
    "reading": "< 100 mg/mL"
  },
  {
    "molecule": "COC(=O)N(Cc1cc(C(F)(F)F)cc(C(F)(F)F)c1)[C@@H]1CC(C2CC2)N(C(=O)OC(C)C)c2ccc(C(F)(F)F)cc21 (stereo in doubt)",
    "reading": "> 300 mg/mL"
  },
  {
    "molecule": "CCOC(=O)N1c2ccc(C(F)(F)F)cc2[C@@H](N(Cc2cc(C(F)(F)F)cc(C(F)(F)F)c2)C(=O)OC)C[C@H]1CC",
    "reading": "> 300 mg/mL"
  },
  {
    "molecule": "CCOC(=O)N1c2ccc(C(F)(F)F)cc2[C@@H](N(C=O)Cc2cc(C(F)(F)F)cc(C(F)(F)F)c2)C[C@H]1C",
    "reading": "> 300 mg/mL"
  }
]
